TESTED_TARGET: TNFα / TNFα receptor (TNFα R1/Fc) (Homo sapiens, UniProt P01375)
Construct: purchased R&D Systems
Sequence (P01375 77-233 limits assumed, species assumed): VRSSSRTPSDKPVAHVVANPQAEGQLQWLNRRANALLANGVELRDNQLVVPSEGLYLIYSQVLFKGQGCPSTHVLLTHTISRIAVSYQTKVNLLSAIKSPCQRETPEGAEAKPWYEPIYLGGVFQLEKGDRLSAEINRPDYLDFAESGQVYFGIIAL
EXPERIMENT_DESCRIPTION: Inhibition of binding of TNFα to the TNFα receptor (plate ELISA competition)
ASSAY_SETUP: Table 2; read-out: Activity (IC50, inhibition of TNFα binding to TNFα R1/Fc)
pIC50: −log10 of the molar value. Numbered stars: 1 amine (or outer) side, 2 acyl side, 3 side chain; on linkers, the order of the positions; unused ones are H or OH. Bridge positions count the residues as written; N and C are the ends. Square brackets hold non-standard residues; d marks the D form. Peptide text beside a SMILES is read from it. Tartaroyl(2R,3R-(OAc)2) = CC(=O)O[C@@H](C(=O)[*:1])[C@@H](OC(C)=O)C(=O)[*:2]; Phe(4-CF3) = N[C@@H](Cc1ccc(C(F)(F)F)cc1)C(=O)O; Phe(2,4-Cl2) = N[C@@H](Cc1ccc(Cl)cc1Cl)C(=O)O; dPhe(4-NH2) = Nc1ccc(C[C@@H](N)C(=O)O)cc1; dPhe(2-CN) = N#Cc1ccccc1C[C@@H](N)C(=O)O; Phe(4-NH2) = Nc1ccc(C[C@H](N)C(=O)O)cc1; dIgl = N[C@@H](C(=O)O)C1Cc2ccccc2C1; d(hPhe) = N[C@H](CCc1ccccc1)C(=O)O; Suc = O=C(CCC(=O)[*:2])[*:1]
QUANTITY_NAME: pIC50

// solved cases for pIC50 follow
>>> result("CC(=O)O[C@H]1C(=O)Nc2ccc(cc2)C[C@H](C(=O)O)NC(=O)[C@@H](CCc2ccccc2)NC(=O)[C@H](Cc2ccc(Cl)cc2Cl)NC(=O)[C@@H](Cc2ccccc2)NC(=O)[C@@H]1OC(C)=O [Compound 220] ([dF][Phe(2,4-Cl2)][d(hPhe)][dPhe(4-NH2)]-OH; linker N-4 via Tartaroyl(2R,3R-(OAc)2))")
"4.52 to 5.00"
>>> result("O=C1COc2ccc(cc2)C[C@@H](C(=O)NCCCS(=O)(=O)O)NC(=O)[C@H](CCc2ccccc2)NC(=O)[C@@H](Cc2ccc(-c3ccccc3)cc2)NC(=O)[C@H](Cc2ccncc2)N1 [Compound 599]")
"> 5.00"
>>> result("O=C1COc2ccc(cc2)C[C@@H](C(=O)O)NC(=O)[C@H](CCc2ccccc2)NC(=O)[C@@H](Cc2ccc(-c3ccccc3)cc2)NC(=O)[C@H](CCc2ccccc2)N1 [Compound 513]")
"> 5.00"
>>> result("O=C1CCCCc2cn(nn2)C[C@@H](C(=O)O)NC(=O)[C@@H](CCc2ccccc2)NC(=O)[C@H](Cc2ccc(-c3ccccc3)cc2)NC(=O)[C@@H](Cc2cccs2)N1 [Compound 544]")
"> 5.00"
>>> result("O=C1COc2ccc(cc2)C[C@@H](C(=O)O)NC(=O)[C@H](Cc2ccccc2)NC(=O)[C@H](Cc2ccc(-c3ccccc3)cc2)NC(=O)[C@H](Cc2cccs2)N1 [Compound 212]")
"> 5.00"
>>> result("CC(C)(NC(=O)[C@@H]1Cc2ccc(cc2)OCC(=O)N[C@@H](Cc2cccs2)C(=O)N[C@H](Cc2ccc(-c3ccccc3)cc2)C(=O)N[C@@H](CCc2ccccc2)C(=O)N1)C(=O)O [Compound 477]")
"> 5.00"
>>> result("O=C1CCC(=O)N[C@H](C2Cc3ccccc3C2)C(=O)N[C@@H](Cc2ccc(C(F)(F)F)cc2)C(=O)N[C@H](Cc2ccccc2)C(=O)N[C@H](C(=O)O)Cc2ccc(cc2)N1 [Compound 165] ([dIgl][Phe(4-CF3)][dF][Phe(4-NH2)]-OH; linker N-4 via Suc)")
"< 4.00"
>>> result("O=C(O)CCCNC(=O)[C@@H]1Cc2ccc(cc2)OCC(=O)N[C@H](Cc2cccs2)C(=O)N[C@@H](Cc2ccc(-c3ccccc3)cc2)C(=O)N[C@H](CCc2ccccc2)C(=O)N1 [Compound 298]")
"> 5.00"
>>> result("O=C1COc2ccc(cc2)C[C@@H](C(=O)O)NC(=O)[C@H](Cc2ccccc2)NC(=O)[C@@H](Cc2ccc(-c3ccccc3)cc2)NC(=O)[C@H](Cc2cccs2)N1 [Compound 214]")
"> 5.00"
>>> result("O=C1COc2ccc(cc2)C[C@H](C(=O)O)NC(=O)[C@H](Cc2c[nH]c3ccccc23)NC(=O)[C@@H](Cc2ccc(-c3ccccc3)cc2)NC(=O)[C@H](Cc2ccncc2)N1 [Compound 732]")
"< 4.00"

Hi there! I need pIC50 for each item below, if you can.
1. COc1cccc(C[C@@H]2NC(=O)COc3ccc(cc3)C[C@@H](C(=O)O)NC(=O)[C@H](CCc3ccccc3)NC(=O)[C@@H](Cc3ccc(-c4ccccc4)cc3)NC2=O)c1 [Compound 680]
2. N#Cc1ccccc1C[C@H]1NC(=O)CCC(=O)Nc2ccc(cc2)C[C@@H](C(=O)O)NC(=O)[C@@H](Cc2ccccc2)NC(=O)[C@H](Cc2ccc(C(F)(F)F)cc2)NC1=O [Compound 129] ([dPhe(2-CN)][Phe(4-CF3)][dF][Phe(4-NH2)]-OH; linker N-4 via Suc)
3. N=C(N)NCCC[C@H]1NC(=O)CCC(=O)Nc2ccc(cc2)C[C@@H](C(=O)O)NC(=O)[C@@H](Cc2ccccc2)NC(=O)[C@H](Cc2ccc(C(F)(F)F)cc2)NC1=O [Compound 141] ([dR][Phe(4-CF3)][dF][Phe(4-NH2)]-OH; linker N-4 via Suc)
4. N#Cc1ccccc1C[C@H]1NC(=O)[C@H](Cc2ccc(-c3ccccc3)cc2)NC(=O)[C@@H](Cc2cccs2)NC(=O)[C@H](O)[C@@H](O)C(=O)Nc2ccc(cc2)C[C@@H](C(=O)O)NC1=O [Compound 285]
5. O=C(O)[C@@H]1Cc2ccc(cc2)NC(=O)[C@H](O)[C@@H](O)C(=O)N[C@H](CCc2ccccc2)C(=O)N[C@@H](Cc2ccc(-c3ccccc3)cc2)C(=O)N[C@H](Cc2ccccc2)C(=O)N1 [Compound 246]

Result ::
> 5.00
4.00 to 4.52
< 4.00
4.00 to 4.52
4.00 to 4.52

Hi there! I need pIC50 for each item below, if you can.
1. CC(=O)N[C@@H]1CC(=O)N[C@H](Cc2cccs2)C(=O)N[C@@H](Cc2ccc(-c3ccccc3)cc2)C(=O)N[C@H](Cc2ccccc2)C(=O)N[C@H](C(=O)O)Cc2ccc(cc2)NC1=O [Compound 378]
2. O=C(O)[C@H](Cc1ccccc1)NC(=O)[C@@H]1Cc2ccc(cc2)NC(=O)[C@H](O)[C@@H](O)C(=O)N[C@@H](Cc2cccs2)C(=O)N[C@H](Cc2ccc(Br)cc2)C(=O)N[C@@H](Cc2ccccc2)C(=O)N1 [Compound 439]

Result ::
4.52 to 5.00
4.00 to 4.52

Source listed as patent US8338565B2.
